- Tested on: Staphylococcus aureus
- Assay Explanation: Inhibition of Staphylococcus aureus MetRS assessed as decrease in […] incorporation at 100 uM by SPA
Kindly return Y if reported inhibition is no lower than 80%; return N if it is lower.

smiles_record=Cc1cccc(C(=O)Nc2nnc(CC(=O)N/N=C/c3ccc(O)cc3O)s2)c1 label_value=Y
smiles_record=O=C(CSc1nc2ccccc2n1Cc1ccccc1)N/N=C/c1ccccc1O label_value=N
smiles_record=O=C(N/N=C/c1ccc(O)cc1O)c1cc(-c2ccccc2)nc2ccccc12 label_value=Y

--- query ---
hey, is inhibition for this one >= 80%? `O=C(Nc1ccccc1C(=O)N/N=C/c1ccccc1O)c1ccc(Cl)cc1`
N

Measured values drawn from ChEMBL document CHEMBL1155119 for this set.
